Reported values of CC50 at 96 h for individual entries
PROTOCOL TEXT: Cytotoxicity against human MT4 cells after 96 hrs by MTT assay
Format: cell-based

SMILES STR: Clc1c2ncccc2cc2nc(-c3ccccc3)c(-c3ccccc3)nc12
UNIT TAG: µM
RESULT COMPARATOR: >
CC50 at 96 h: 100
--
SMILES STR: Clc1c2ncccc2cc2ncc(-c3ccccc3)nc12
UNIT TAG: µM
RESULT COMPARATOR: >
CC50 at 96 h: 100
--
SMILES STR: O=c1[nH]c2cc3c(O)ccnc3c(Cl)c2nc1-c1ccccc1
UNIT TAG: µM
RESULT COMPARATOR: >
CC50 at 96 h: 100
--
SMILES STR: c1ccc(-c2ccc(-c3nc4cc5cccnc5cc4[nH]3)cc2)cc1
UNIT TAG: µM
RESULT COMPARATOR: =
CC50 at 96 h: 8
--
SMILES STR: CCc1nc2cc3cccnc3c(Cl)c2[nH]c1=O
UNIT TAG: µM
RESULT COMPARATOR: =
CC50 at 96 h: 51
--
SMILES STR: N#CCn1nnc2c(Cl)c3ncccc3cc21
UNIT TAG: µM
RESULT COMPARATOR: =
CC50 at 96 h: 62

The measured values listed here are drawn from ChEMBL document CHEMBL1938334.
